Biological target: T1, human IL-18BP (human, UniProt O95998 31-194)
T1 construct: UniProt printed as 095998; also called hIL-18BP
T1 sequence: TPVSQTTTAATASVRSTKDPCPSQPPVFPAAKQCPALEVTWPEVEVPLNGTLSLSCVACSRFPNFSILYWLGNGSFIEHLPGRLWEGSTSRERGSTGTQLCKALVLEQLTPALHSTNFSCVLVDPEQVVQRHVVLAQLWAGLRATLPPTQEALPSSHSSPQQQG
Assay: BLI, apparent KD
valueKind: pKd
Worth noting: pKd values are minus log10 of concentrations stated in mol/L.

Req: Annotate the binder SA301a HC-V100aI (antibody, name in Kabat numbering, V domains shown, IgG1 kappa) VH: QVQLQESGPGLVKPSQTLSLTCTVSGYSITSDYNSHWIRQPPGKGLEWIGYIHYSGSTNYNPSLKSRVTISRDTSKNQFSLKLSSVTAADTAVYYCARNYGSIYINYFDYWGQGTLVTVSS VL: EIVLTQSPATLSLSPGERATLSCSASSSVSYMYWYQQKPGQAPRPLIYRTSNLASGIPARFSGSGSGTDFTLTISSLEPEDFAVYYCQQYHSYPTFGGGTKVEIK with its measured pKd.
Resp: 10.05

Data origin, for the record: patent US20250368745A1
